Target: T1, human neonatal Fc receptor (hFcRn) (human, UniProt P55899 24-290; P61769 21-119)
T1 construct: Biotinylated in the ELISA, Octet and yeast assays; also called human FcRn; huFcRn
T1 sequence (P55899 24-290 limits assumed, chain 1 of 2): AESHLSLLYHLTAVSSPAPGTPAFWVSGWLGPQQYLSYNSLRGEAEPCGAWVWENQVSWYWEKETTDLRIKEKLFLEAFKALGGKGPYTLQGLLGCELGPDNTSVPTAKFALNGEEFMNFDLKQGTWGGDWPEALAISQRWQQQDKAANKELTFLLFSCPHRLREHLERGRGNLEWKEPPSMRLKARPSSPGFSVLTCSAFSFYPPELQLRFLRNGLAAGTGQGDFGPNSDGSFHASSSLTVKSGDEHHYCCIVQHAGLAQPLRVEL
T1 sequence (P61769 21-119 limits assumed, chain 2 of 2): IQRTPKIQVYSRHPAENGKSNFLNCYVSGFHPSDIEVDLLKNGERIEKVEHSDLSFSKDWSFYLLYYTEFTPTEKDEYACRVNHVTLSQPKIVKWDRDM
Test: SPR competition pH 5.5
Reported EC50 values for a set of binders
PARAMETER MEASURED: EC50 (nM)

BINDER	PARAMETER MEASURED	UNIT TAG	REPORTED
variant Fc-fragment Fc-5-97 (other, library L5 isolate) EPKSCDKTHTCPPCPAPELLGGPSVFLFPPKPKDTLMISRTPEVTCVVVDVSHEDPEVKFNWYVDGVEVHNAKTKPREEQYNSTYRVVSVLTVLHQDWLNGKEYKCKVSNKALPAPIEKTISKAKGQPREPQVYTLPPSRDELTKNQVSLTCLVKGFYPSDIAVEWESNGGCNMLWGSCGGGQPENNYKTTPPVLDSDGSFFLYSKLTVDKSRWQQGNVFSCSVMHEALHNHYTQKSLSLSPGK	EC50	nM	25
variant Fc-fragment Fc-5-92 (other, soluble elsewhere) EPKSCDKTHTCPPCPAPELLGGPSVFLFPPKPKDTLMISRTPEVTCVVVDVSHEDPEVKFNWYVDGVEVHNAKTKPREEQYNSTYRVVSVLTVLHQDWLNGKEYKCKVSNKALPAPIEKTISKAKGQPREPQVYTLPPSRDELTKNQVSLTCLVKGFYPSDIAVEWESNGGCDGRTKYCGGGQPENNYKTTPPVLDSDGSFFLYSKLTVDKSRWQQGNVFSCSVMHEALHNHYTQKSLSLSPGK	EC50	nM	75
variant Fc-fragment Fc-5-79 (other, library L5 isolate) EPKSCDKTHTCPPCPAPELLGGPSVFLFPPKPKDTLMISRTPEVTCVVVDVSHEDPEVKFNWYVDGVEVHNAKTKPREEQYNSTYRVVSVLTVLHQDWLNGKEYKCKVSNKALPAPIEKTISKAKGQPREPQVYTLPPSRDELTKNQVSLTCLVKGFYPSDIAVEWESNGGCVNTWWSCGGGQPENNYKTTPPVLDSDGSFFLYSKLTVDKSRWQQGNVFSCSVMHEALHNHYTQKSLSLSPGK	EC50	nM	53

Data provenance is patent US20140356358A1.
